Reference source: paper PMC10441322

# Test target: Shaker voltage-gated potassium channel (Drosophila melanogaster)
# Assay protocol: cut-open voltage clamp of Shaker in Xenopus laevis oocytes, […] mV, pH […]
# Type: cell-based
Observed property: pIC50
Give bare numbers, as −log10 of the molar value.

Report pIC50 for Cc1cncc(F)c1N [5Me3F4AP, 3-fluoro-5-methylpyridin-4-amine] please.
3.52

* * *

# Test target: Shaker voltage-gated potassium channel (Drosophila melanogaster, UniProt P08510)
# Sequence (P08510 whole entry): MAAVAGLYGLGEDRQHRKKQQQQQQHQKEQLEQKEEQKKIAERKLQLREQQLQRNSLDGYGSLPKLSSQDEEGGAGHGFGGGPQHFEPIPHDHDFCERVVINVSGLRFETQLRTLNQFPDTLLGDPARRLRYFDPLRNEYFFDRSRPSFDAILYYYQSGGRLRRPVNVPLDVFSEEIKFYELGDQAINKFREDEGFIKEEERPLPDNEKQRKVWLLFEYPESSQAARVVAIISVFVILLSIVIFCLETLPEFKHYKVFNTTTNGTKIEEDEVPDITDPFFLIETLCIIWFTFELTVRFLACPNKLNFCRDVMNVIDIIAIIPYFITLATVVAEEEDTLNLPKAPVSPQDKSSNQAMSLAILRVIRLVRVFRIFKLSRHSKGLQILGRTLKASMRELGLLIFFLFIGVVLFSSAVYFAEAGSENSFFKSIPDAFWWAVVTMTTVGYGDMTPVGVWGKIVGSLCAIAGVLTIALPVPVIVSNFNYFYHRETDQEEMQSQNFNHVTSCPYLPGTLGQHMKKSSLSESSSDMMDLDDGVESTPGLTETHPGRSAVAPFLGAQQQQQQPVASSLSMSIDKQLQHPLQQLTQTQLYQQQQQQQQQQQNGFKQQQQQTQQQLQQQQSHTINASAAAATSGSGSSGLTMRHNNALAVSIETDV
# Assay protocol: cut-open voltage clamp of Shaker in Xenopus oocytes, […] mV, pH […]
# Assay type: cell-based
Give measured pIC50 for each item. Keep answers brief.
One number for each entry, as −log10 of the molar value.

Molecule: Cc1cnccc1N [3Me4AP]
Test target: Shaker voltage-gated potassium channel (Drosophila melanogaster, UniProt P08510)
pIC50: 4.18

# evaluate next
Report pIC50 for Nc1ccncc1F [3F4AP, 3-fluoro-4-aminopyridine] please.
3.91
